Below, each entry is listed with its recorded pIC50.
- test-system: acid ceramidase (Homo sapiens)
- Construct: Cell lysates overexpressing acid ceramidase were used as the enzyme source; expressed in transfected cells
- Sequence (Q13510 22-395): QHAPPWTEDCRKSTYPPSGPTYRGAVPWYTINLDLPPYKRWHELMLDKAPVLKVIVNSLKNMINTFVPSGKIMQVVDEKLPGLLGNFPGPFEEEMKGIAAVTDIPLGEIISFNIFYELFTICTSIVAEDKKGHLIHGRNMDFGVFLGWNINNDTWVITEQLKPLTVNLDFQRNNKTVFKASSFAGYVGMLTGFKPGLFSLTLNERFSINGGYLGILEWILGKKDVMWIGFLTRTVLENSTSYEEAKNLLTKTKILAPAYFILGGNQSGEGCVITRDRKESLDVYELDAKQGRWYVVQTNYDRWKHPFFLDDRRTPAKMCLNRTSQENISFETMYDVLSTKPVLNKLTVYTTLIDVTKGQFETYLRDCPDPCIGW
- run-description: Acid ceramidase inhibition, biochemical fluorescent assay with cell lysates overexpressing acid ceramidase, substrate Rbm14-12
- run-parameters: substrate Rbm14-12 6.3 μM, pH 4.5
pIC50: −log10 of the molar value.

Would you please look over these solved cases?
- CCN1CCN(c2cccc3c2ncn3C(=O)NCCC(C)C)CC1: 6.00 to 6.70
- CN1C2CCC1CN(c1cccc3c1ncn3C(=O)NCCC1CCC(F)(F)C1)C2 (stereo not drawn): 6.00 to 6.70
- CN1CCN(c2cccc3c2ncn3C(=O)NCCOc2ccccc2)CC1CC#N (stereo not drawn): > 6.70

Let us move to another entry and its pIC50.
Give the measured pIC50 of COc1nc2ccc(N3CCOCC3)cc2n1C(=O)NCCCc1ccco1 [Example 228a] .
6.00 to 6.70
